assay: Prodrug bioconversion in intestinal S9 cell fractions
Assay type: in vitro ADME
condition set: Human; 0.25 mg/mL S9 protein; Table F
Kindly state Clint (prodrug disappearance) for each of the entries shown.

Worked cases, Clint (prodrug disappearance) given:
CN(C[C@H](Cc1ccccc1)OP(=O)(O)O)C(=O)c1cncc(C#Cc2cnn(C)n2)c1 [Example 23] | 243.4 μL/min/mg intestinal S9 protein
CN(C[C@H](Cc1ccccc1)OP(=O)(O)O)C(=O)c1cncc(C#Cc2cnn(C(F)F)c2)c1 [Example 19] | 296 μL/min/mg intestinal S9 protein
CN(C[C@H](Cc1ccccc1)OC(=O)CN)C(=O)c1cncc(C#Cc2cnn(C(F)F)c2)c1 [Example 21] | 592.9 μL/min/mg intestinal S9 protein

Now let's try a different one.
Recall and state the measured Clint (prodrug disappearance) for CN(C[C@H](Cc1ccccc1)OC(=O)CN)C(=O)c1cncc(C#Cc2cnn(C)n2)c1 [Example 25] .
410 μL/min/mg intestinal S9 protein

====

Kindly state Clint (prodrug disappearance) for each of the entries shown.
assay: Prodrug bioconversion in intestinal S9 cell fractions
Format: in vitro ADME
condition set: Rat; 0.25 mg/mL; Experiment 2

Worked cases, Clint (prodrug disappearance) given:
CN(C[C@H](Cc1ccccc1)OP(=O)(O)O)C(=O)c1cncc(C#Cc2cnn(C)n2)c1 | 33.8 μL/min/mg intestinal S9 protein
CN(C[C@H](Cc1ccccc1)OP(=O)(O)O)C(=O)c1cncc(C#Cc2cnn(C(F)F)c2)c1 | 16.9 μL/min/mg intestinal S9 protein
CN(C[C@H](Cc1ccccc1)OC(=O)CN)C(=O)c1cncc(C#Cc2cnn(C)n2)c1 | 318 μL/min/mg intestinal S9 protein

Recall and state the measured Clint (prodrug disappearance) for CN(C[C@H](Cc1ccccc1)OC(=O)CN)C(=O)c1cncc(C#Cc2cnn(C(F)F)c2)c1 .
719 μL/min/mg intestinal S9 protein
